Here, each record is paired with measured growth data.
Test system: SK-MEL-2 melanoma
assayName: NCI-60 one-dose screen, 48 h (100 = growth as untreated, 0 = no growth, -100 = all killed)
conditionSet: 10 µM unless noted
The panel holds about 83,000 compounds, 20% with a hit somewhere; the sample as a whole holds those more often.
reportedEndpoint: growth (%)

[
  {
    "compound": "COc1cc(/C=C/c2nnc(-c3cc(-c4ccccc4)n[nH]3)o2)cc(OC)c1OC",
    "testTarget": "SK-MEL-2 melanoma",
    "valueReported": 89.7
  },
  {
    "compound": "O=C1C(Cl)=C(N=Nc2c(Cl)c(O)c3ccccc3c2O)C(=O)c2ccccc21",
    "testTarget": "SK-MEL-2 melanoma",
    "valueReported": 98.5
  },
  {
    "compound": "COc1ccc(-c2csc(NC(=O)c3cc(O)c(O)c(O)c3)n2)cc1",
    "testTarget": "SK-MEL-2 melanoma",
    "valueReported": 71.4
  },
  {
    "compound": "C/C(=N/N=C(N)N)c1ccc(N)cc1",
    "testTarget": "SK-MEL-2 melanoma",
    "valueReported": 154
  },
  {
    "compound": "CC1=C(C(=O)Nc2ccccc2)C(c2ccc3c(c2)OCCO3)NC(=O)N1 (stereo not given)",
    "testTarget": "SK-MEL-2 melanoma",
    "valueReported": 125
  }
]

---

Tested on: NCI-H226 lung
assayName: NCI-60 one-dose screen, 48 h (100 = growth as untreated, 0 = no growth, -100 = all killed)
conditionSet: 10 µM unless noted
Compounds without any hit were thinned out: in the full panel of roughly 83,000, 20% have a hit.
reportedEndpoint: growth (%)

[
  {
    "compound": "Nc1ccc2c3c(cccc13)-c1ccccc1-2",
    "testTarget": "NCI-H226 lung",
    "valueReported": 55.5
  },
  {
    "compound": "CCCCCCOc1ccc(/C=N/NC(N)=S)cc1",
    "testTarget": "NCI-H226 lung",
    "valueReported": 66
  },
  {
    "compound": "S=c1[nH]nc2sc3ccccc3n12",
    "testTarget": "NCI-H226 lung",
    "valueReported": 106
  },
  {
    "compound": "Cc1cc(N2CCOCC2)nc(N2CCOCC2)n1",
    "testTarget": "NCI-H226 lung",
    "valueReported": 110
  },
  {
    "compound": "Cc1nn(-c2ccc(Cl)cc2)c2nc3c(nc12)C(=O)c1ccccc1-3",
    "testTarget": "NCI-H226 lung",
    "valueReported": 32.5
  },
  {
    "compound": "CC(C)[C@]12O[C@H]1[C@@H]1O[C@]13[C@]1(O[C@H]1C[C@H]1C4=C(CC[C@@]13C)C(=O)OC4)[C@@H]2OC(=O)CN(C)C",
    "testTarget": "NCI-H226 lung",
    "valueReported": 10.6
  },
  {
    "compound": "CO[C@H]1CC(O[C@@H]2/C(C)=C/C[C@@H]3C[C@@H](C[C@]4(CC[C@H](C)[C@@H](C5CCCCC5)O4)O3)OC(=O)[C@@H]3C=C(C)/C(=N/O)[C@H]4OC/C(=C\\C=C\\[C@@H]2C)[C@]43O)O[C@@H](C)C1O (some centres not stated)",
    "testTarget": "NCI-H226 lung",
    "valueReported": -84.2
  },
  {
    "compound": "Cc1ccc(C=C2C(Cl)=C(Cl)C(Cl)=C2Cl)cc1",
    "testTarget": "NCI-H226 lung",
    "valueReported": -79
  },
  {
    "compound": "ClC1=C(Cl)C(=C2C(Cl)=C(Cl)C(Cl)=C2Cl)C(Cl)=C1Cl",
    "testTarget": "NCI-H226 lung",
    "valueReported": 101
  },
  {
    "compound": "CN(C)c1nc(-c2ccco2)n2nc(-c3ccco3)cc2n1",
    "testTarget": "NCI-H226 lung",
    "valueReported": 87.1
  },
  {
    "compound": "C/C(=N/N=C(N)N)c1ccc(N)cc1",
    "testTarget": "NCI-H226 lung",
    "valueReported": 102
  },
  {
    "compound": "COc1cccc(-c2nnc(N)o2)c1",
    "testTarget": "NCI-H226 lung",
    "valueReported": 103
  }
]

---

Test system: RPMI-8226 leukemia
assayName: NCI-60 one-dose screen, 48 h (100 = growth as untreated, 0 = no growth, -100 = all killed)
conditionSet: 10 µM unless noted
The panel holds about 83,000 compounds, 20% with a hit somewhere; the sample as a whole holds those more often.
reportedEndpoint: growth (%)

[
  {
    "molecule": "O=C1c2nsnc2C(=O)c2c(F)c(F)c(F)c(F)c21",
    "reportedEndpoint": "growth",
    "valueReported": -1.71
  },
  {
    "molecule": "COc1ccc(Cn2c(NCCCN(C)C)nc(=O)n(Cc3ccc(F)cc3)c2=O)cc1",
    "reportedEndpoint": "growth",
    "valueReported": 95.7
  },
  {
    "molecule": "COc1cc(/C=C/C(=O)c2c(-c3ccc(Cl)cc3)nc3sc(C)nn23)cc(OC)c1OC",
    "reportedEndpoint": "growth",
    "valueReported": -15.6
  },
  {
    "molecule": "O=C(Nc1ccc(C2=NCCCN2)cc1)Nc1ccc(C2=NCCCN2)cc1",
    "reportedEndpoint": "growth",
    "valueReported": 53.2
  },
  {
    "molecule": "C=C(C)[C@@H]1C[C@H](O)Cc2cc(Cl)cc(Cl)c2N1",
    "reportedEndpoint": "growth",
    "valueReported": 116
  },
  {
    "molecule": "Cn1cc(-c2csc(-c3cn(C)c4ncccc34)n2)c2cc(Br)cnc21",
    "reportedEndpoint": "growth",
    "valueReported": 79.3
  },
  {
    "molecule": "Cc1ccc2c(c1)O/C(=C\\c1ccc([N+](=O)[O-])o1)C2=O",
    "reportedEndpoint": "growth",
    "valueReported": -34.4
  },
  {
    "molecule": "c1ccc(-c2nnc(Nc3nnc(-c4ccccc4)s3)s2)cc1",
    "reportedEndpoint": "growth",
    "valueReported": 87.8
  },
  {
    "molecule": "O=C1N(C2CCCCC2)C(=O)N1C1CCCCC1",
    "reportedEndpoint": "growth",
    "valueReported": -16.7
  },
  {
    "molecule": "CCOC(=O)c1c2c(c(C)n1Cc1ccc(OC)cc1)-c1nc(N)ncc1CC2",
    "reportedEndpoint": "growth",
    "valueReported": 119
  },
  {
    "molecule": "N#Cc1c2ccccc2c2n1-c1ccccc1OC(c1ccccc1)C2=O (stereo unspecified)",
    "reportedEndpoint": "growth",
    "valueReported": 18.1
  }
]

---

Test system: NCI-H460 lung
assayName: NCI-60 one-dose screen, 48 h (100 = growth as untreated, 0 = no growth, -100 = all killed)
conditionSet: 10 µM unless noted
About 83,000 compounds went through this panel and 20% of them were active in at least one assay; those are over-represented in the sample as a whole. The source made the active and inactive calls. Rule for the calls: active = growth percent below 10; inactive = the rest.
Here, each record is paired with measured growth data.
reportedEndpoint: growth

[
  {
    "molecule": "CCOc1cc(-c2ccc[nH]2)[nH]c1/C=C1\\N=C(C)C(C(=O)OC)=C1C",
    "testTarget": "NCI-H460 lung",
    "valueReported": "-79.4% (active)"
  },
  {
    "molecule": "O=C(/C=C/c1ccc(Cl)cc1)c1ccccc1",
    "testTarget": "NCI-H460 lung",
    "valueReported": "107% (inactive)"
  },
  {
    "molecule": "O=C1/C(=C/c2ccc([N+](=O)[O-])o2)Oc2ccc(Cl)cc21",
    "testTarget": "NCI-H460 lung",
    "valueReported": "75.4% (inactive)"
  },
  {
    "molecule": "O=C(OC[C@H]1O[C@H](OC(=O)c2cc(O)c(O)c(OC(=O)c3cc(O)c(O)c(O)c3)c2)[C@H](OC(=O)c2cc(O)c(O)c(OC(=O)c3cc(O)c(O)c(O)c3)c2)[C@@H](OC(=O)c2cc(O)c(O)c(OC(=O)c3cc(O)c(O)c(O)c3)c2)[C@@H]1OC(=O)c1cc(O)c(O)c(OC(=O)c2cc(O)c(O)c(O)c2)c1)c1cc(O)c(O)c(OC(=O)c2cc(O)c(O)c(O)c2)c1",
    "testTarget": "NCI-H460 lung",
    "valueReported": "11.6% (inactive)"
  },
  {
    "molecule": "Cc1cc(C)c(OC(=O)CSc2nc3ccccc3c(=O)n2CCc2ccccc2)cc1C",
    "testTarget": "NCI-H460 lung",
    "valueReported": "74.1% (inactive)"
  },
  {
    "molecule": "C/C(=C\\CCc1ccsc1)CC/C=C(\\C)CCCN1CCC(CO)CC1",
    "testTarget": "NCI-H460 lung",
    "valueReported": "-46.3% (active)"
  },
  {
    "molecule": "COc1ccc(C2=NN(C(=O)c3cc(OC)c(OC)c(OC)c3)C(c3ccc(C#N)cc3)C2)cc1OC (stereo not given)",
    "testTarget": "NCI-H460 lung",
    "valueReported": "9.81% (active)"
  },
  {
    "molecule": "CCCCSc1cc(C)nc(N)n1",
    "testTarget": "NCI-H460 lung",
    "valueReported": "103% (inactive)"
  },
  {
    "molecule": "C=C(C[C@](O)(C(=O)/C=C/c1ccc(Cl)cc1)C(=O)OC)c1ccccc1",
    "testTarget": "NCI-H460 lung",
    "valueReported": "88.6% (inactive)"
  },
  {
    "molecule": "Nc1ccc(C2=NN(c3ccccc3)C(c3ccc(Cl)cc3)C2)cc1 (stereo not given)",
    "testTarget": "NCI-H460 lung",
    "valueReported": "99.4% (inactive)"
  }
]
